In this section we review reported pKd values for a set of binders.
target system: T1, Elk1 ETS domain (human, UniProt P19419 1-93)
T1 sequence: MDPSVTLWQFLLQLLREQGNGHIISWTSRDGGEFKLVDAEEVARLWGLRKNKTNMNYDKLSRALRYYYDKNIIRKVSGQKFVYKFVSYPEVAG
assay procedure: SPR
pKd is defined as minus the log10 of a concentration measured in mol/L.

Exercise: Which pKd value belongs to E74 (dsDNA) DNA 1: CTGAATAACCGGAAGTAACTCATC DNA 2: GATGAGTTACTTCCGGTTATTCAG ?
Solution: 10.70

Let us move to another entry and its pKd.
Exercise: So what does the record say about pKd for SC1 (dsDNA) DNA 1: CGGCCAAGCCGGAAGTGAGTGCC DNA 2: GGCACTCACTTCCGGCTTGGCCG ?
Solution: 10.22
